- protocol.description: Half life in fasted human at 400 mg, po every 24 hrs measured on day 8
- Format: ADME, organism-based
- recorded.conditions: in vivo
metric: half-life (min)
Field format: number, assumed min, no unit text.

May I ask what half-life has been recorded for "O=C(CSc1nnc(Br)n1-c1ccc(C2CC2)c2ccccc12)Nc1ccc(C(=O)O)cc1Cl" ?
678

###

- protocol.description: Plasma protein binding in human
- Format: ADME, cell-free
- recorded.conditions: read-out: PPB
metric: fraction unbound

May I ask what fraction unbound has been recorded for "O=C(CSc1nnc(Br)n1-c1ccc(C2CC2)c2ccccc12)Nc1ccc(C(=O)O)cc1Cl" ?
< 0.01
